Below, each entry is listed with its recorded log10(IC12).
test system: Saccharomyces cerevisiae; test: Antifungal activity against Saccharomyces cerevisiae 1138; format: functional
Record value = log10 of IC12 given in µg/mL.

C[C@@H]1[C@H](O)[C@@H](C)/C=C/C=C/C=C/C=C/C=C/C=C/C=C/[C@H](O[C@@H]2O[C@H](C)[C@@H](O)[C@H](N)[C@@H]2O)C[C@@H]2O[C@](O)(C[C@@H](O)C[C@@H](O)[C@H](O)CC[C@@H](O)C[C@@H](O)CC(=O)O[C@H]1C)C[C@H](O)[C@H]2C(=O)O : 0.91
CC(=O)N1CCN(c2ccc(OCC3COC(Cn4ccnc4)(c4ccc(Cl)cc4Cl)O3)cc2)CC1 (stereo not given) : 0.40

Data request: State its log10(IC12) for this molecule: C[C@H]1CC[C@@H]([C@@H](C)[C@H]2CC[C@H]3[C@@H]4CC=C5C[C@@H](O)CC[C@]5(C)[C@H]4CC[C@]23C)NC1
Data returned: 0.48

Data request: Fill in log10(IC12) for record C[C@H]1CCC([C@H](C)[C@H]2CC[C@H]3[C@@H]4CCC5=CC(=O)CC[C@]5(C)[C@H]4CC[C@]23C)=NC1
Data returned: 1.15

Data request: Please supply the value of reported log10(IC12) for the item C[C@H](C1=NC[C@](C)(O)CC1)[C@H]1CC[C@H]2[C@@H]3CC=C4C[C@@H](O)CC[C@]4(C)[C@H]3CC[C@]12C
Data returned: -0.46

Origin of measurements: ChEMBL document CHEMBL1150957
